The reported numbers originate from ChEMBL document CHEMBL1255284.

System: Aspergillus viridinutans
assay: Antimicrobial activity against Aspergillus viridinutans isolate CNM-CM-3147 obtained from oropharyngeal exudate of patient after 48 hrs by broth microdilution method
Assay type: functional
run conditions: isolate CNM-CM-3147, 48 h
Below: a set of entries, each annotated with reported MIC.

compound	MIC
CC[C@@H]([C@H](C)O)n1ncn(-c2ccc(N3CCN(c4ccc(OC[C@@H]5CO[C@@](Cn6cncn6)(c6ccc(F)cc6F)C5)cc4)CC3)cc2)c1=O	0.41 µg/mL

[Q] Reported MIC, compound `C[C@@H]1[C@H](O)[C@@H](C)/C=C/C=C/C=C/C=C/C=C/C=C/C=C/[C@H](O[C@@H]2O[C@H](C)[C@@H](O)[C@H](N)[C@@H]2O)C[C@@H]2O[C@](O)(C[C@@H](O)C[C@@H](O)[C@H](O)CC[C@@H](O)C[C@@H](O)CC(=O)O[C@H]1C)C[C@H](O)[C@H]2C(=O)O` : ____
[A] 0.58 µg/mL

[Q] Can you handle `C[C@@H](c1nc(-c2ccc(C#N)cc2)cs1)[C@](O)(Cn1cncn1)c1ccc(F)cc1F` next?
[A] 5.66 µg/mL

[Q] And then `CN(C/C=C/C#CC(C)(C)C)Cc1cccc2ccccc12` , what is it?
[A] 1.2 µg/mL

[Q] Next entry: CCC(C)n1ncn(-c2ccc(N3CCN(c4ccc(OCC5COC(Cn6cncn6)(c6ccc(Cl)cc6Cl)O5)cc4)CC3)cc2)c1=O (stereo unspecified)
[A] 14.4 µg/mL

[Q] Here is the next compound: `C[C@@H](c1ncncc1F)[C@](O)(Cn1cncn1)c1ccc(F)cc1F`
[A] 4 µg/mL

====

System: Aspergillus lentulus
assay: Antimicrobial activity against Aspergillus lentulus isolate CNM-CM-4428 obtained from skin of patient after 48 hrs by broth microdilution method
Assay type: functional
run conditions: isolate CNM-CM-4428, 48 h
Doc: threshold 5 µg/mL (exclusive). Items with MIC beneath it return t; others return f.

Please review the entries below; each comes with its answer.
compound	subject of test	classification
CN(C/C=C/C#CC(C)(C)C)Cc1cccc2ccccc12 [TERBINAFINE]	Aspergillus lentulus	t
C[C@@H]1[C@H](O)[C@@H](C)/C=C/C=C/C=C/C=C/C=C/C=C/C=C/[C@H](O[C@@H]2O[C@H](C)[C@@H](O)[C@H](N)[C@@H]2O)C[C@@H]2O[C@](O)(C[C@@H](O)C[C@@H](O)[C@H](O)CC[C@@H](O)C[C@@H](O)CC(=O)O[C@H]1C)C[C@H](O)[C@H]2C(=O)O [AMPHOTERICIN B]	Aspergillus lentulus	f
CCC(C)n1ncn(-c2ccc(N3CCN(c4ccc(OCC5COC(Cn6cncn6)(c6ccc(Cl)cc6Cl)O5)cc4)CC3)cc2)c1=O (stereo unspecified) [ITRACONAZOLE]	Aspergillus lentulus	f

[Q] Field: below-cutoff. Rule: recorded MIC strictly less than 5 µg/mL. Subject: CC[C@@H]([C@H](C)O)n1ncn(-c2ccc(N3CCN(c4ccc(OC[C@@H]5CO[C@@](Cn6cncn6)(c6ccc(F)cc6F)C5)cc4)CC3)cc2)c1=O [POSACONAZOLE]
[A] t

====

Test system: Neosartorya pseudofischeri
assay: Antimicrobial activity against Neosartorya pseudofischeri isolate CNM-CM-3769 obtained from sputum of patient after 48 hrs by broth microdilution method
Type: functional
run conditions: Aspergillus thermomutatus
One threshold, 1 µg/mL, splits the recorded MIC values: lower ones are class 1, equal or higher ones are class 0.

compound	classification
C[C@@H](c1nc(-c2ccc(C#N)cc2)cs1)[C@](O)(Cn1cncn1)c1ccc(F)cc1F [RAVUCONAZOLE]	class 0
CC[C@@H]([C@H](C)O)n1ncn(-c2ccc(N3CCN(c4ccc(OC[C@@H]5CO[C@@](Cn6cncn6)(c6ccc(F)cc6F)C5)cc4)CC3)cc2)c1=O [POSACONAZOLE]	class 1
CN(C/C=C/C#CC(C)(C)C)Cc1cccc2ccccc12 [TERBINAFINE]	class 0

[Q] Strictly below 1 µg/mL: is that where MIC of CCC(C)n1ncn(-c2ccc(N3CCN(c4ccc(OCC5COC(Cn6cncn6)(c6ccc(Cl)cc6Cl)O5)cc4)CC3)cc2)c1=O (stereo unspecified) [ITRACONAZOLE] sits?
[A] class 0

[Q] Next record, please: C[C@@H](c1ncncc1F)[C@](O)(Cn1cncn1)c1ccc(F)cc1F [VORICONAZOLE]
[A] class 0

====

The entries below come with measured log10(MIC) values attached.
System: Aspergillus lentulus
assay: Antimicrobial activity against Aspergillus lentulus isolate CNM-CM-4426 obtained from sputum of patient after 48 hrs by broth microdilution method
Format: functional
run conditions: isolate CNM-CM-4426, 48 h
All values: log10 MIC [µg/mL].

Example cases with answers are listed next.
compound	experimental value
C[C@@H](c1nc(-c2ccc(C#N)cc2)cs1)[C@](O)(Cn1cncn1)c1ccc(F)cc1F	0.73
C[C@@H](c1ncncc1F)[C@](O)(Cn1cncn1)c1ccc(F)cc1F	0.73
C[C@@H]1[C@H](O)[C@@H](C)/C=C/C=C/C=C/C=C/C=C/C=C/C=C/[C@H](O[C@@H]2O[C@H](C)[C@@H](O)[C@H](N)[C@@H]2O)C[C@@H]2O[C@](O)(C[C@@H](O)C[C@@H](O)[C@H](O)CC[C@@H](O)C[C@@H](O)CC(=O)O[C@H]1C)C[C@H](O)[C@H]2C(=O)O	1.08
CCC(C)n1ncn(-c2ccc(N3CCN(c4ccc(OCC5COC(Cn6cncn6)(c6ccc(Cl)cc6Cl)O5)cc4)CC3)cc2)c1=O (stereo unspecified)	0.82
CC[C@@H]([C@H](C)O)n1ncn(-c2ccc(N3CCN(c4ccc(OC[C@@H]5CO[C@@](Cn6cncn6)(c6ccc(F)cc6F)C5)cc4)CC3)cc2)c1=O	-0.70

[Q] API: value(readout=log10(MIC), system=Aspergillus lentulus) for record `CN(C/C=C/C#CC(C)(C)C)Cc1cccc2ccccc12`
[A] -0.08

====

Here, each record is paired with measured MIC data.
Test system: Neosartorya hiratsukae
assay: Antimicrobial activity against Neosartorya hiratsukae isolate CNM-CM-4328 obtained from cornea of patient after 48 hrs by broth microdilution method
Assay type: functional
run conditions: Aspergillus hiratsukae, isolate CNM-CM-4328, Cornea
Reply with just the number (in µg/mL).

compound	MIC [µg/mL]
C[C@@H](c1nc(-c2ccc(C#N)cc2)cs1)[C@](O)(Cn1cncn1)c1ccc(F)cc1F [RAVUCONAZOLE]	0.5
C[C@@H](c1ncncc1F)[C@](O)(Cn1cncn1)c1ccc(F)cc1F [VORICONAZOLE]	1.25
C[C@@H]1[C@H](O)[C@@H](C)/C=C/C=C/C=C/C=C/C=C/C=C/C=C/[C@H](O[C@@H]2O[C@H](C)[C@@H](O)[C@H](N)[C@@H]2O)C[C@@H]2O[C@](O)(C[C@@H](O)C[C@@H](O)[C@H](O)CC[C@@H](O)C[C@@H](O)CC(=O)O[C@H]1C)C[C@H](O)[C@H]2C(=O)O [AMPHOTERICIN B]	0.75
CCC(C)n1ncn(-c2ccc(N3CCN(c4ccc(OCC5COC(Cn6cncn6)(c6ccc(Cl)cc6Cl)O5)cc4)CC3)cc2)c1=O (stereo unspecified) [ITRACONAZOLE]	0.25
CC[C@@H]([C@H](C)O)n1ncn(-c2ccc(N3CCN(c4ccc(OC[C@@H]5CO[C@@](Cn6cncn6)(c6ccc(F)cc6F)C5)cc4)CC3)cc2)c1=O [POSACONAZOLE]	0.09

Let us examine a further case.
[Q] Provide value of MIC for this record tested with Neosartorya hiratsukae: CN(C/C=C/C#CC(C)(C)C)Cc1cccc2ccccc12 [TERBINAFINE]
[A] 0.09

====

Test system: Aspergillus lentulus
assay: Antimicrobial activity against Aspergillus lentulus isolate CNM-CM-3537 obtained from sputum of patient after 48 hrs by broth microdilution method
Assay type: functional
run conditions: isolate CNM-CM-3537, 48 h
property: log10(MIC) (log10 of the value in µg/mL)
Friendly reminder: values = log10 of MIC, unit µg/mL.

Worked set:
compound	log10(MIC)
CCC(C)n1ncn(-c2ccc(N3CCN(c4ccc(OCC5COC(Cn6cncn6)(c6ccc(Cl)cc6Cl)O5)cc4)CC3)cc2)c1=O (stereo unspecified)	0.92
CC[C@@H]([C@H](C)O)n1ncn(-c2ccc(N3CCN(c4ccc(OC[C@@H]5CO[C@@](Cn6cncn6)(c6ccc(F)cc6F)C5)cc4)CC3)cc2)c1=O	-0.55
C[C@@H]1[C@H](O)[C@@H](C)/C=C/C=C/C=C/C=C/C=C/C=C/C=C/[C@H](O[C@@H]2O[C@H](C)[C@@H](O)[C@H](N)[C@@H]2O)C[C@@H]2O[C@](O)(C[C@@H](O)C[C@@H](O)[C@H](O)CC[C@@H](O)C[C@@H](O)CC(=O)O[C@H]1C)C[C@H](O)[C@H]2C(=O)O	0.85
C[C@@H](c1ncncc1F)[C@](O)(Cn1cncn1)c1ccc(F)cc1F	0.54
C[C@@H](c1nc(-c2ccc(C#N)cc2)cs1)[C@](O)(Cn1cncn1)c1ccc(F)cc1F	0.48

Now consider a different compound.
[Q] What value of log10(MIC) has been reported for the following compound? `CN(C/C=C/C#CC(C)(C)C)Cc1cccc2ccccc12`
[A] 0.00
